Neutralization IC50 (RSV subtype A) reference
Molecular target: Respiratory Syncytial Virus fusion glycoprotein (RSV F) on RSV-A2 virus (Respiratory Syncytial Virus subtype A (RSV-A2))
Experiment: cell-based or functional assay

ADI-41146 (antibody, V domains shown) VH: QVQLVQSGAEVKKPGESLKISCKGSGHSFATFWIGWVRQVPGNGLELMGIINLGDSDTKYSPSFQGQVTISADESIGTAYLQWSSLKASDTAMYYCARVSLPHYYYYMDVWGKGTTVTVSS VL: DIVMTQSPSSVSASVGDRVTITCRASQGISTWLAWYRQKPGKAPELLIYAASRLQSGVPSRFSGSGSGTDFTLTISSLQPEDFATYYCQQANSFLGAFGPGTKLEIK = > 25 µg/mL
ADI-41189 (antibody, V domains shown) VH: QVQLVESGGGLVKPGGSLRLSCAASGFTFSSYSMNWVRQAPGKGLEWVSSMSSSSGYIDYADSVKGRFTISRDNAKNSLYLQMNSLRVEDTAVYYCARRNAVVVPSLMVVADYYYGMDVWGQGTTVTVSS VL: QSVLTQPPSVSGAPGQRVTISCTGSSSNIGAGYDVHWYQQLPGTAPKLLIYGNSNRPSGVPDRFSGSKSGTSASLAITGLQAEDEADYYCQSYDTSLSGPGYVFGTGTKLTVL = > 25 µg/mL
ADI-41216 (antibody, V domains shown) VH: EVQLVESGGGLVKPGESLRLSCAASGFRFSDHYMSWIRQAPGKGLEWISYISSSSSYIHYADSVTGRFTISRDNAKNSMYLQMNSLRAEDTAVYYCAREIGRSYYMDVWGKGTTVTVSS VL: QSALIQPPSVSGAPGQRVTISCTGSSSNIGAGYDVHWYQQLPGTAPKLLIYGNNNRPSGVPDRFSASKSGISASLAITGVQTEDEADYYCQSYDRSLSEFYVFGSGTKVTVL = 0.19 µg/mL
ADI-41196 (antibody, V domains shown) VH: EVQLVESGGGLVQPGGSLRLSCIVSGFPFNTYAMSWVRQAPGKGLEWVSVVSASGGNTDYADSVKGRFTISRDNSKKTLYLQMNSLRAEDTAVYYCARTESNTLAPSWSGRYVTDWYFDLWGRGTLVTVSS VL: EIVMTQSPSSLSASVGDRVTITCRASQSISSFLNWYQQKPGKAPKLLISAASSLQSGVPSRFSGSGSGTDFTLTISSLQPEDFATYYCQQSYSIPTFGQGTRLEIK = > 25 µg/mL

Suppose we examine the binder ADI-41179 (antibody, V domains shown) VH: QVQLVQSGAEVKKPGSSVKISCKASGGTFSSHPISWVRQAPGQGLEWMGRIVPIFGIANYAQKFQGRVTMIADKSTNTAYMELSNLRSEDTAVYYCANPVYDSSGFQWGQGTLVTVSS VL: QPVLTQPRSVSGSPGQSVTISCTGTSGDGGFYNYVSWYQQHPGKTPKLMIYDVDQRPSGVPDRFSGSKSGNTASLTISGLQAEDEADYYCCSYPGNPLYVFGTGTKVTVL ; what Neutralization IC50 (RSV subtype A) value has been reported?
> 25 µg/mL
